assay: Ionization constant, pKa of the compound in KCl at pH 1.8 by potentiometric titration; format: physicochemical

| structureSmiles | pKa |
| --- | --- |
| COc1ccc(C([N+](=O)[O-])[N+](=O)[O-])cc1 | 3.9 |

---

assay: Induction of NO release assessed as nitrite formation at 0.1 mM in phosphate buffer saline at pH 7.4 in presence of 5 mM of L-cysteine measured after 6 hrs by Griess assay; assay type: functional
metricName: Activity

| structureSmiles | metricName | readoutValue |
| --- | --- | --- |
| CC(c1ccc(C(F)(F)F)cc1)([N+](=O)[O-])[N+](=O)[O-] | Activity | 4.6% |
| COCCOCCOCCOc1ccc(C(C)([N+](=O)[O-])[N+](=O)[O-])cc1 | Activity | 13.8% |
| CC(c1ccccc1)([N+](=O)[O-])[N+](=O)[O-] | Activity | 2% |
| COc1ccc(C(C)([N+](=O)[O-])[N+](=O)[O-])cc1 | Activity | 25.4% |
| Cc1ccc(C(C)([N+](=O)[O-])[N+](=O)[O-])cc1 | Activity | 1.3% |
